The compounds listed here are annotated with their IC50.
- Experimental protocol: Inhibition of colony formation in human PC3 cells after 2 weeks by crystal violet staining-based assay
- Type: functional, cell-based
- Condition context: PC-3, 336 h
Experimental readout: IC50 (nM)

smiles_str=C=COC(=O)NCc1ccc(Nc2nc(Nc3ccccc3C(=O)NC)n3ccnc3n2)cc1 experimental_readout=IC50 value_measured=630
smiles_str=CNC(=O)c1ccccc1Nc1nc(Nc2ccc(CN)cc2)nc2nccn12 experimental_readout=IC50 value_measured=1400
smiles_str=CNC(=O)c1ccccc1Nc1nc(Nc2ccc(N3CCOCC3)cc2OC)ncc1Cl experimental_readout=IC50 value_measured=260
smiles_str=CNC(=O)c1ccccc1Nc1nc(Nc2cc(OC)c(OC)c(OC)c2)nc2nccn12 experimental_readout=IC50 value_measured=990
smiles_str=CNC(=O)c1ccccc1Nc1nc(Nc2ccc(N3CCOCC3)cc2OC)nc2nccn12 experimental_readout=IC50 value_measured=630

====

Measured pIC50, listed per entry.
- Experimental protocol: Antiproliferative activity against human U87MG cells after 48 hrs by WST-1 assay
- Format: functional, cell-based, U-87MG ATCC
- Condition context: U-87 MG
pIC50: −log10 of the molar value.
Experimental readout: pIC50

smiles_str=CNC(=O)c1ccccc1Nc1nc(Nc2ccc(CN)cc2)nc2nccn12 experimental_readout=pIC50 value_measured=6.43
smiles_str=CNC(=O)c1ccccc1Nc1nc(Nc2ccc(N3CCOCC3)cc2OC)nc2nccn12 experimental_readout=pIC50 value_measured=5.64
smiles_str=CNC(=O)c1ccccc1Nc1nc(Nc2ccc(N3CCOCC3)cc2OC)ncc1Cl experimental_readout=pIC50 value_measured=5.92
smiles_str=CNC(=O)c1ccccc1Nc1nc(Nc2cc(OC)c(OC)c(OC)c2)nc2nccn12 experimental_readout=pIC50 value_measured=5.38
smiles_str=C=COC(=O)NCc1ccc(Nc2nc(Nc3ccccc3C(=O)NC)n3ccnc3n2)cc1 experimental_readout=pIC50 value_measured=5.54

====

- Experimental protocol: Antiproliferative activity against human PC3 cells after 48 hrs by WST-1 assay
- Type: functional, cell-based
- Condition context: PC-3, 48 h
Sorting guide: entries reporting IC50 beneath 1000 nM go in the y pile, the rest go in the n pile.

smiles_str=CNC(=O)c1ccccc1Nc1nc(Nc2ccc(N3CCOCC3)cc2OC)ncc1Cl discrete_label=n
smiles_str=CNC(=O)c1ccccc1Nc1nc(Nc2ccc(N3CCOCC3)cc2OC)nc2nccn12 discrete_label=y
smiles_str=C=COC(=O)NCc1ccc(Nc2nc(Nc3ccccc3C(=O)NC)n3ccnc3n2)cc1 discrete_label=y
smiles_str=CNC(=O)c1ccccc1Nc1nc(Nc2ccc(CN)cc2)nc2nccn12 discrete_label=n
smiles_str=CNC(=O)c1ccccc1Nc1nc(Nc2cc(OC)c(OC)c(OC)c2)nc2nccn12 discrete_label=y

====

- Experimental protocol: Inhibition of colony formation in human U87MG cells after 2 weeks by crystal violet staining-based assay
- Assay type: functional, cell-based, U-87MG ATCC
- Condition context: U-87 MG, 336 h
Each entry below lists one item and its recorded IC50 value.
Experimental readout: IC50

smiles_str=CNC(=O)c1ccccc1Nc1nc(Nc2ccc(N3CCOCC3)cc2OC)ncc1Cl experimental_readout=IC50 value_measured="0.19 µM"
smiles_str=CNC(=O)c1ccccc1Nc1nc(Nc2ccc(CN)cc2)nc2nccn12 experimental_readout=IC50 value_measured="0.22 µM"
smiles_str=CNC(=O)c1ccccc1Nc1nc(Nc2ccc(N3CCOCC3)cc2OC)nc2nccn12 experimental_readout=IC50 value_measured="1.4 µM"
smiles_str=CNC(=O)c1ccccc1Nc1nc(Nc2cc(OC)c(OC)c(OC)c2)nc2nccn12 experimental_readout=IC50 value_measured="0.22 µM"
smiles_str=C=COC(=O)NCc1ccc(Nc2nc(Nc3ccccc3C(=O)NC)n3ccnc3n2)cc1 experimental_readout=IC50 value_measured="0.42 µM"

====

- Assayed target: Focal adhesion kinase 1 (Homo sapiens, UniProt Q05397)
- Sequence (Q05397 whole entry): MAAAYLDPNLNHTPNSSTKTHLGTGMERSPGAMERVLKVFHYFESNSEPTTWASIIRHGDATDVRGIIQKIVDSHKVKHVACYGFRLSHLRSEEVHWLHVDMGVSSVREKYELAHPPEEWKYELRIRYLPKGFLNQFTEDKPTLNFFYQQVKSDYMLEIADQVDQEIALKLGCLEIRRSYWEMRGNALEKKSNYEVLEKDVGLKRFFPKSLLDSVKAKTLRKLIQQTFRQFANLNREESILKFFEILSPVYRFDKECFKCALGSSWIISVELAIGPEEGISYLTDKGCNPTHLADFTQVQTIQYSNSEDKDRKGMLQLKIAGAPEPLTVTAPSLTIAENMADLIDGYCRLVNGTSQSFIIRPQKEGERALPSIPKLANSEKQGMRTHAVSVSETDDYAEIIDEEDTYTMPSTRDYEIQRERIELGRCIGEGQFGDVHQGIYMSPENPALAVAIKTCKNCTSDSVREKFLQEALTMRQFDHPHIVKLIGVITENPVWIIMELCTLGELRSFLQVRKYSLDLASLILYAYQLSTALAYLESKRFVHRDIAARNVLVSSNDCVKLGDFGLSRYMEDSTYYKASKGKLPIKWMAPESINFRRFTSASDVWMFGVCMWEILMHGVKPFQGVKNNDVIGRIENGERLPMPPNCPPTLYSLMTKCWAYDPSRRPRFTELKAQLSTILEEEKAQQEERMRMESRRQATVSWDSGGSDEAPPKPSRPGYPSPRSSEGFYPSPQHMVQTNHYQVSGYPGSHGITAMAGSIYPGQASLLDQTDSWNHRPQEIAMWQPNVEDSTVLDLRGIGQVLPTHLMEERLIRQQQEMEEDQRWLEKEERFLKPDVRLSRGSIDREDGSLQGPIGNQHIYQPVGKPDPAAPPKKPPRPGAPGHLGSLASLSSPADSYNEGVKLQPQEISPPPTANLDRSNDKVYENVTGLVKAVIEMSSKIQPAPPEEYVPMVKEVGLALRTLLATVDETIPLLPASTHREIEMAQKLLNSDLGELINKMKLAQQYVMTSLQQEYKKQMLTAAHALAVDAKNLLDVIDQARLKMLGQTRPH
# reported log10(IC50); entries follow
Experimental readout: log10(IC50) (log10 of the value in nM)

compound=COC(=O)c1ccccc1Cc1nc(Nc2cc(OC)c(OC)c(OC)c2)nc2nccn12 assayed_target="Focal adhesion kinase 1 (Homo sapiens, UniProt Q05397)" value_measured=2.57
compound=CNC(=O)c1ccccc1Nc1nc(Nc2cc(OC)c(OC)c(OC)c2)n2ccnc2n1 assayed_target="Focal adhesion kinase 1 (Homo sapiens, UniProt Q05397)" value_measured=2.49
compound=C=COC(=O)NCc1ccc(Nc2nc(Nc3ccccc3C(=O)OC)n3ccnc3n2)cc1 assayed_target="Focal adhesion kinase 1 (Homo sapiens, UniProt Q05397)" value_measured=2.70
compound="COc1cc(NC2=Nc3nccn3C(Cc3ccccc3NC(C)=O)N2)cc(OC)c1OC (stereo not drawn)" assayed_target="Focal adhesion kinase 1 (Homo sapiens, UniProt Q05397)" value_measured=3.95
compound=COc1cc(Nc2nc(Cc3ccccc3NS(C)(=O)=O)nc3nccn23)cc(OC)c1OC assayed_target="Focal adhesion kinase 1 (Homo sapiens, UniProt Q05397)" value_measured=2.92
compound=CNC(=O)c1ccccc1Nc1nc(Nc2ccc(CN)cc2)nc2nccn12 assayed_target="Focal adhesion kinase 1 (Homo sapiens, UniProt Q05397)" value_measured=2.08
compound=CNC(=O)c1ccccc1Nc1nc(Nc2cc(OC)c(OC)c(OC)c2)nc2nccn12 assayed_target="Focal adhesion kinase 1 (Homo sapiens, UniProt Q05397)" value_measured=2.36
compound=COC(=O)c1ccccc1Nc1nc(Nc2ccc(CN)cc2)nc2nccn12 assayed_target="Focal adhesion kinase 1 (Homo sapiens, UniProt Q05397)" value_measured=2.38
